target: Voltage-gated inwardly rectifying potassium channel KCNH2 (Homo sapiens) (UniProt Q12809); assay: Human Ether-a-go-go-Related Gene (hERG) channel small molecule antagonists: fluorescence cell-based qHTS assay (AID 1671200); details: hERG-U2OS cells, FluxOR thallium flux fluorescence; series mostly up to 76.8 µM; further: nearly all actives have a fitted effect of over 50% in size
Sequence (Q12809 whole entry, looked up): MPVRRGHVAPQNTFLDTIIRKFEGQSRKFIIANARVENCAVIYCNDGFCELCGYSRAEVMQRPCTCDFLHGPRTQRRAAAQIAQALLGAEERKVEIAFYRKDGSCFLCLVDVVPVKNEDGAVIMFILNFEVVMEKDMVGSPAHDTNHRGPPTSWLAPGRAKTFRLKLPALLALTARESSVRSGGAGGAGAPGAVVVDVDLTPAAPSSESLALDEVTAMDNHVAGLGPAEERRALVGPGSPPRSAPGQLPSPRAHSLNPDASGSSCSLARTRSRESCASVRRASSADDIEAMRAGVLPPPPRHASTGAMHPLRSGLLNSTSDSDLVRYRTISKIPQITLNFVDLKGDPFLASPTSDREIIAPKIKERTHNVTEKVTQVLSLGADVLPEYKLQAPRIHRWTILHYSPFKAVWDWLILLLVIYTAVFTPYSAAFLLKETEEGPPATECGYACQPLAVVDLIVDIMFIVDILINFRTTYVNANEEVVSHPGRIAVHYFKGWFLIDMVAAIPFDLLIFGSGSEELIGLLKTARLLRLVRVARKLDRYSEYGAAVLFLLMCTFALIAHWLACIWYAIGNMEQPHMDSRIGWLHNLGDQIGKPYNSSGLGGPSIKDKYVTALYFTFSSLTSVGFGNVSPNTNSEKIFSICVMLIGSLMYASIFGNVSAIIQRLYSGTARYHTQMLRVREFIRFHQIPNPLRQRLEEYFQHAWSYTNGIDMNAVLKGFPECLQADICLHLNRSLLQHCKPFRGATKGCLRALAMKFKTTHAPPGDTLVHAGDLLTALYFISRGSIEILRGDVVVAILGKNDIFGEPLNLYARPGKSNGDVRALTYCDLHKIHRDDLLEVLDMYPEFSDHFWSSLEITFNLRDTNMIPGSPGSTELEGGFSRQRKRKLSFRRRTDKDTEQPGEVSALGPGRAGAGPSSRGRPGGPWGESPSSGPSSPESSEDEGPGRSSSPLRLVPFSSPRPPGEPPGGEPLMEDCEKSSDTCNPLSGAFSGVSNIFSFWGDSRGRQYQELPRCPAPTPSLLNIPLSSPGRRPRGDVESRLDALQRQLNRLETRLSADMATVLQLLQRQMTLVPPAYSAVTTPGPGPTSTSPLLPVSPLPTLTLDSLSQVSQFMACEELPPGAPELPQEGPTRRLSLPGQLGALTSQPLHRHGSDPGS
Inconclusive results are not listed. The source made the active and inactive calls. The call rests on the fitted dose curve; in most records, active means well fitted inhibition curve with a large enough effect in the repeat runs; inconclusive means weak or mixed curves; inactive means flat fitted curve, though single readings scatter.
Reply using exactly one outcome from Yes (active), No (inactive)

// known answers, use as guide
CCOP(=S)(OCC)SCS(=O)(=O)CC
No
CC(C)CC(C)Nc1ccc(Nc2ccccc2)cc1 (stereo not given)
Yes
O=C1c2ccccc2C(=O)C1C(=O)C(c1ccccc1)c1ccc(Cl)cc1 (stereo not given)
No
Cc1ccc(CCl)cc1
No
CCOC(=O)c1ccccc1S(=O)(=O)NC(=O)Nc1nc(Cl)cc(OC)n1
No

Alright, here's another compound for you.
Query block: Can you look up the reported call for CCCCOCN(C(=O)CCl)c1c(CC)cccc1CC for me?
Result block: No

---

test: qHTS assay to identify small molecule antagonists of the estrogen receptor alpha (ER-alpha) signaling pathway using the BG1 cell line in the presence of 0.1 nM 17-beta-estradiol - cell viability counter screen (AID 1259241); settings: VM7Luc4E2 (BG1) viability, CellTiter-Fluor protease, 22 h, 0.1 nM estradiol agonist added; series mostly up to 92.4 µM; further: nearly all actives have a fitted effect of over 40% in size
Results filed as inconclusive are left out. Activity calls are given as the source filed them. The call rests on the fitted dose curve; in most records, active means well fitted cell-killing curve with a large enough effect in the repeat runs; inconclusive means weak or mixed curves, or effect the other way; inactive means flat fitted curve, though single readings scatter.
Reply using exactly one outcome from yes (1) (active), no (0) (inactive)

// known answers, use as guide
CCOP(=S)(OCC)SCS(=O)(=O)CC
no (0)
[Cl][Sn]([c]1ccccc1)([c]1ccccc1)[c]1ccccc1
yes (1)
CN(CCCC(=O)c1cccnc1)N=O
no (0)

Query block: Can you look up the reported call for Oc1c(Cl)c(Cl)cc(Cl)c1Cl for me?
Result block: no (0)

Query block: Can you look up the reported call for Nc1ccc(Cl)cc1C(=O)c1ccccc1 for me?
Result block: no (0)

---

test: qHTS assay for identifying genotoxic compounds that show differential cytotoxicity against isogenic chicken DT40 cell lines with known DNA damage response pathways - wild type cell line (AID 743012); details: DT40 wild type chicken cells viability, CellTiter-Glo, 40 h; series mostly up to 68.4 µM; further: nearly all actives have a fitted effect of over 60% in size
Results filed as inconclusive are left out. Active and inactive are the calls of the source. Calls come from the whole dose curve; as a rule, active = well fitted cell-killing curve with a large enough effect in the repeat runs; inconclusive = weak or mixed curves, or effect the other way; inactive = no such curve, though single readings can be large or run the other way.
Reply using exactly one outcome from TRUE for active, FALSE for inactive

// known answers, use as guide
CCOP(=O)(NC(C)C)Oc1ccc(SC)c(C)c1 (stereo unspecified)
TRUE
CCCCCCCCCCCCCCCC[n+]1ccccc1
TRUE
CC(=O)[O-].[Tl+]
TRUE
Nc1ccc(Cc2ccc(N)c(Cl)c2)cc1Cl
TRUE
Oc1ccc(C(=C(Cl)Cl)c2ccc(O)cc2)cc1
FALSE

Alright, here's another molecule for you.
Query block: Can you look up the reported call for CCCCCCCCc1ccc(O)cc1 for me?
Result block: TRUE

---

assay: qHTS assay to identify small molecule agonists of the androgen receptor (AR) signaling pathway in the presence of an antagonist - cell viability counter screen (AID 1259379); conditions: MDA-kb2 viability, CellTiter-Fluor, 16 h; series mostly up to 92.4 µM; further: nearly all actives have a fitted effect of over 25% in size
Records with an inconclusive call do not appear. Active and inactive are the calls of the source. Calls come from the whole dose curve; as a rule, active = well fitted cell-killing curve with a large enough effect in the repeat runs; inconclusive = weak or mixed curves, or effect the other way; inactive = flat fitted curve, though single readings scatter.
Reply using exactly one outcome from active, inactive

CC1(C)CC/C(=C/c2ccc(Cl)cc2)C1(O)Cn1cncn1 (configuration not stated)
inactive

Query block: Can you look up the reported call for CN(C)CCc1c[nH]c2cccc(O)c12 for me?
Result block: inactive

Query block: Can you look up the reported call for O=C(CCl)C(Cl)Cl for me?
Result block: active

Query block: Can you look up the reported call for CC1(C)[C@H](C(=O)O[C@H](C#N)c2cccc(Oc3ccccc3)c2)[C@@H]1/C=C(\Cl)C(F)(F)F for me?
Result block: inactive

Query block: Can you look up the reported call for O=c1ssc(Cl)c1Cl for me?
Result block: active

Query block: Can you look up the reported call for CCCCCCCCCCCCCCC(Br)C(=O)O (configuration not stated) for me?
Result block: inactive

Query block: Can you look up the reported call for BrC(Br)Br for me?
Result block: inactive

---

test: qHTS assay for small molecule activators of the heat shock response signaling pathway - cell viability counter screen (AID 743209); details: HSE-bla HeLa viability, CellTiter-Glo luminescence, 5 h; series mostly up to 62.6 µM; further: nearly all actives have a fitted effect of over 50% in size
Records with an inconclusive call do not appear. Activity calls are given as the source filed them. The call rests on the fitted dose curve; in most records, active means well fitted cell-killing curve with a large enough effect in the repeat runs; inconclusive means weak or mixed curves, or effect the other way; inactive means no such curve, though single readings can be large or run the other way.
Reply using exactly one outcome from active, inactive

// known answers, use as guide
O=C(CCl)Nc1ccccc1
active
CC(C)(C)OO
inactive
CC(C)CCCCCOC(=O)c1ccccc1C(=O)OCCCCCC(C)C
inactive
CN(C)C1CSSSC1
inactive
CCCOCC(=Nc1ccc(Cl)cc1C(F)(F)F)n1ccnc1
active
c1ccc(OCC2CO2)cc1 (centres undefined)
inactive
Clc1ccc(-c2ccc(Cl)c(Cl)c2Cl)c(Cl)c1Cl
inactive
Oc1ccc2ccc3cccc4ccc1c2c34
inactive
CCC[CH2][Sn]([CH2]CCC)([CH2]CCC)[O]C(=O)c1ccccc1
active
COc1cc(C=O)cc2c1[C@H](COC(N)=O)[C@]1(OC(C)=O)ON2C[C@H]2[C@@H]1N2C(C)=O
active

Query block: Can you look up the reported call for CCOC(=O)C1(c2ccccc2)CCN(CCC(C#N)(c2ccccc2)c2ccccc2)CC1 for me?
Result block: inactive

Query block: Can you look up the reported call for ClC1=C(Cl)[C@]2(Cl)[C@@H]3[C@@H]4C[C@@H]([C@H]5O[C@@H]45)[C@@H]3[C@@]1(Cl)C2(Cl)Cl for me?
Result block: active

Query block: Can you look up the reported call for Clc1ccc(C(c2ccccc2Cl)C(Cl)(Cl)Cl)cc1 (centres undefined) for me?
Result block: inactive

Query block: Can you look up the reported call for CC(=O)C(Cl)(Cl)Cl for me?
Result block: inactive

Query block: Can you look up the reported call for COc1ccc(OC)c(CC(C)N)c1 (centres undefined) for me?
Result block: inactive

---

test: qHTS assay to identify small molecule agonists of the androgen receptor (AR) signaling pathway in the presence of an antagonist - cell viability counter screen (AID 1259379); conditions: MDA-kb2 viability, CellTiter-Fluor, 16 h; series mostly up to 92.4 µM; further: nearly all actives have a fitted effect of over 25% in size
Results filed as inconclusive are left out. Activity calls are given as the source filed them. The call rests on the fitted dose curve; in most records, active means well fitted cell-killing curve with a large enough effect in the repeat runs; inconclusive means weak or mixed curves, or effect the other way; inactive means flat fitted curve, though single readings scatter.
Reply using exactly one outcome from t = active, f = inactive

// known answers, use as guide
C[C@@H]1O[C@@H](O[C@H]2C[C@@H](O)[C@]3(CO)[C@H]4[C@H](O)C[C@]5(C)[C@@H](C6=CC(=O)OC6)CC[C@]5(O)[C@@H]4CC[C@]3(O)C2)[C@H](O)[C@H](O)[C@H]1O
f
CN(CCCC(O)c1cccnc1)N=O (centres undefined)
f
CCCN(CCC)c1c([N+](=O)[O-])cc(S(N)(=O)=O)cc1[N+](=O)[O-]
t
Cc1cccc(OP(=O)(Oc2cccc(C)c2)Oc2cccc(C)c2)c1
f
Clc1ccc(-c2ccccc2)cc1
f

Query block: Can you look up the reported call for C[C@]12CC[C@H](O)C[C@H]1CC[C@@H]1[C@@H]2C[C@@H](O)[C@]2(C)[C@@H](C3=CC(=O)OC3)CC[C@]12O for me?
Result block: f

Query block: Can you look up the reported call for Oc1ccc(C(=C(Cl)Cl)c2ccc(O)cc2)cc1 for me?
Result block: f

Query block: Can you look up the reported call for CC(C)N1C(=O)N(c2ccccc2)CSC1=NC(C)(C)C for me?
Result block: f

Query block: Can you look up the reported call for CCCCCCCCCBr for me?
Result block: f

---

experiment: qHTS RealTime-Glo MT Cell Viability Assay in HepG2 cells - 32 hour (AID 1224877); settings: RealTime-Glo luminescence; series mostly up to 76.8 µM; further: nearly all actives have a fitted effect of over 55% in size
Records with an inconclusive call do not appear. Calls of active or inactive are those of the source. The call rests on the fitted dose curve; in most records, active means well fitted cell-killing curve with a large enough effect in the repeat runs; inconclusive means weak or mixed curves; inactive means flat fitted curve, though single readings scatter.
Reply using exactly one outcome from Yes (active), No (inactive)

// known answers, use as guide
ClCc1ccc(Cl)cc1Cl
No
Oc1cccc(-c2ccccc2)c1
No
Cc1ccc(C(=O)Cl)cc1
No

Query block: Can you look up the reported call for CN(C)c1ccc(N=Nc2ccccc2)cc1 for me?
Result block: No

Query block: Can you look up the reported call for CC(C)[C@H](C(=O)O[C@H](C#N)c1cccc(Oc2ccccc2)c1)c1ccc(Cl)cc1 for me?
Result block: No

Query block: Can you look up the reported call for N#Cc1ccccc1N for me?
Result block: No

---

test: qHTS assay to identify small molecule antagonists of the peroxisome proliferator-activated receptor gamma (PPARg) signaling pathway - cell viability counter screen (AID 743194); details: PPARg-bla HEK293H viability, CellTiter-Glo luminescence, 17 h; co-treated with 50 nM rosiglitazone unless noted; series mostly up to 62.6 µM; further: nearly all actives have a fitted effect of over 55% in size; further: potency means the concentration at half of the fitted maximal effect
Results filed as inconclusive are left out. Activity calls are given as the source filed them. The call rests on the fitted dose curve; in most records, active means well fitted cell-killing curve with a large enough effect in the repeat runs; inconclusive means weak or mixed curves, or effect the other way; inactive means no such curve, though single readings can be large or run the other way.
readoutKind: Potency

See these solved cases before continuing.
C[C@]12Cc3nonc3C[C@@H]1CC[C@@H]1[C@@H]2CC[C@@]2(C)[C@H]1CC[C@]2(C)O
inactive
Cc1ccc(OP(=O)(Oc2ccccc2)Oc2ccccc2)cc1
inactive
CC(C)[C@H](C(=O)OC(C#N)c1cccc(Oc2ccccc2)c1)c1ccc(OC(F)F)cc1 (stereo partly specified)
inactive
S=C(SSC(=S)N1CCCCC1)N1CCCCC1
inactive
CC(=O)O[C@H]1CC[C@@]2(C)C(=CC[C@@H]3[C@@H]2CC[C@]2(C)C(=O)CC[C@@H]32)C1
inactive
ClC1=C(Cl)C2(Cl)C3C(Cl)C(Cl)CC3C1(Cl)C2(Cl)Cl (stereo unspecified)
24.5 µM (active)
O=C(NC(=O)c1c(F)cccc1F)Nc1cc(Cl)c(OC(F)(F)C(F)F)c(Cl)c1
inactive
C[C@H]1CC[C@@H]2[C@@H](C)[C@H]3[C@H](C[C@H]4[C@@H]5CC=C6CC(O[C@@H]7O[C@H](CO)[C@H](O)[C@H](O[C@@H]8O[C@H](CO)[C@@H](O)[C@H](O)[C@H]8O)[C@H]7O[C@H]7O[C@@H](C)[C@H](O)[C@@H](O)[C@H]7O)CC[C@]6(C)[C@H]5CC[C@]34C)N2C1 (stereo partly specified)
8.99 µM (active)
CC(=O)OC1(c2ccccc2)CCN(CCc2ccccc2)CC1
inactive
COP(=O)(OC)SCn1c(=O)oc2cc(Cl)cnc21
inactive

Quick batch: Potency for everything below.
1. COc1cc(N)c(Cl)cc1C(=O)NC1CN2CCC1CC2 (stereo unspecified)
2. CC(C)OC(=S)S
3. Cc1cc(SCc2sc(-c3ccc(C(F)(F)F)c(F)c3)nc2C)ccc1OCC(=O)O
4. O=[N+]([O-])O.O=[N+]([O-])O.[Cd]

Result block:
inactive
inactive
49 µM (active)
0.155 µM (active)

Quick batch: Potency for everything below.
1. O=C(O)C1C2CCC(O2)C1C(=O)O (stereo unspecified)
2. CN(C)c1ccc(N=Nc2ccccc2)cc1
3. [Cd+2].[Cl-].[Cl-]

Result block:
1: inactive; 2: inactive; 3: 1.55 µM (active)

Every entry's value here was drawn from PubChem BioAssay (Tox21).
